Values were extracted from patent US10519152B2.

Please respond with reported log10(DC50) for every item in the list.
biological target: Estrogen Receptor (ERα) in MCF-7 human ductal carcinoma breast cell line (Homo sapiens, UniProt P03372); construct: endogenous in cells; host or cells: MCF-7; experiment: MCF-7 ER degradation assay (cell based immuno-fluorescence); conditions: MCF-7 cells, 18-22 hours incubation, 50% reduction of ERα expression; single experiment or average of two or more; read-out: MCF-7 ER degradation IC50
Sequence (P03372 whole entry): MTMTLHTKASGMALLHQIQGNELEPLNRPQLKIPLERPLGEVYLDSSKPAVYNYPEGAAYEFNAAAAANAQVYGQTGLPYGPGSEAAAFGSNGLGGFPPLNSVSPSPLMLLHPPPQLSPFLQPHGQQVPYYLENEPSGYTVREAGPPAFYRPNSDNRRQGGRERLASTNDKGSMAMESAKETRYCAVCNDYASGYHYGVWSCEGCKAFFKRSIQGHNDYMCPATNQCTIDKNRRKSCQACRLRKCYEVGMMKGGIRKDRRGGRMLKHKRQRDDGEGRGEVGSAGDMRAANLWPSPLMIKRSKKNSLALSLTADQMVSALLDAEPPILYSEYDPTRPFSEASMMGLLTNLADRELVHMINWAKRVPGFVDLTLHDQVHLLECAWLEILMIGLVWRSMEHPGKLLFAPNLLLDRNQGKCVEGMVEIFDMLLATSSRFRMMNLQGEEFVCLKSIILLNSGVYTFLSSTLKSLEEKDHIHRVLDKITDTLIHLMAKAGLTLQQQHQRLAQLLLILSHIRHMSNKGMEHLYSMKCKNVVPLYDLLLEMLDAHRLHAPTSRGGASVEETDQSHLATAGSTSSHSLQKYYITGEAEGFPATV
The figures below represent log10 of DC50, where DC50 is stated in nM.

Sure, the documented log10(DC50) for `Cc1ncsc1-c1ccc(CNC(=O)[C@@H]2C[C@@H](O)CN2C(=O)[C@@H](NC(=O)COCc2cccc(COc3cc(F)c([C@@H]4c5[nH]c6ccccc6c5C[C@@H](C)N4CC(C)(C)F)c(F)c3)n2)C(C)(C)C)cc1` is -0.22

Sure, the documented log10(DC50) for `Cc1ncsc1-c1ccc(CNC(=O)[C@@H]2C[C@@H](O)CN2C(=O)[C@@H](NC(=O)COCCOCCOCCOc2cc(F)c([C@@H]3c4[nH]c5ccccc5c4C[C@@H](C)N3CC3(F)CC3)c(F)c2)C(C)(C)C)cc1` is 0.00

Sure, the documented log10(DC50) for `Cc1ncsc1-c1ccc(CNC(=O)[C@@H]2C[C@@H](O)CN2C(=O)[C@@H](NC(=O)COCCCCCOc2cc(F)c([C@@H]3c4[nH]c5ccccc5c4C[C@@H](C)N3CC(F)(F)F)c(F)c2)C(C)(C)C)cc1` is 0.11

Sure, the documented log10(DC50) for `Cc1ncsc1-c1ccc(CNC(=O)[C@@H]2C[C@@H](O)CN2C(=O)[C@@H](NC(=O)c2cnn(CCOCCNC(=O)/C=C/c3cc(F)c([C@@H]4c5[nH]c6ccccc6c5C[C@@H](C)N4CC(C)(C)F)c(F)c3)c2)C(C)(C)C)cc1` is -0.30

Sure, the documented log10(DC50) for `Cc1ncsc1-c1ccc(CNC(=O)[C@@H]2C[C@@H](O)CN2C(=O)[C@@H](NC(=O)COCCCCCCOc2ccc([C@@H]3c4[nH]c5ccccc5c4C[C@@H](C)N3CC(F)F)nc2)C(C)(C)C)cc1` is 0.97

Sure, the documented log10(DC50) for `Cc1ncsc1-c1ccc(CNC(=O)[C@@H]2C[C@@H](O)CN2C(=O)[C@@H](NC(=O)COCCCOc2cc(F)c([C@@H]3c4[nH]c5ccccc5c4C[C@@H](C)N3CC(C)(C)F)c(F)c2)C(C)(C)C)cc1` is 0.23

Sure, the documented log10(DC50) for `Cc1ncsc1-c1ccc(CNC(=O)[C@@H]2C[C@@H](O)CN2C(=O)[C@@H](NC(=O)COCCCCCCOc2cc(F)c([C@@H]3c4[nH]c5ccccc5c4C[C@@H](C)N3CC(C)(C)F)c(F)c2)C(C)(C)C)cc1` is 0.83

Sure, the documented log10(DC50) for `Cc1ncsc1-c1ccc(CNC(=O)[C@@H]2C[C@@H](O)CN2C(=O)[C@@H](NC(=O)COCCOCCCCCOc2cc(F)c([C@@H]3c4[nH]c5ccccc5c4C[C@@H](C)N3CC(F)F)c(F)c2)C(C)(C)C)cc1` is -0.22

Sure, the documented log10(DC50) for `Cc1ncsc1-c1ccc(CNC(=O)[C@@H]2C[C@@H](O)CN2C(=O)[C@@H](NC(=O)COCC(F)(F)COCCCCCOc2cc(F)c([C@@H]3c4[nH]c5ccccc5c4C[C@@H](C)N3CC(C)(C)F)c(F)c2)C(C)(C)C)cc1` is 0.26
